Entry source: PubChem BioAssay (EPA / NIEHS)

- Read-out: serum amyloid A (SAA), SAA1 (gene 6288)
- Assay info: BSK_CASM3C_SAA: BioMAP Diversity Plus: CASM3C Assay for serum amyloid A (SAA) Biomarker Activity (AID 2283049);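 note: SAA protein level quantified by ELISA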
- Condition label: primary human coronary artery smooth muscle cells; actives raise or lower the signal
The source made the active and inactive calls. Rule for the calls: active = hit-call score of the fitted dose curve at least 0.9, where 1 is the maximum; inactive = score below 0.9.
The categories you may choose from are TRUE (active), FALSE (inactive)

Task: Record request — test call for N#Cc1c(Cl)cccc1Cl
Result: FALSE

Task: Record request — test call for COP(=S)(OC)SCn1nnc2ccccc2c1=O
Result: FALSE

Task: Record request — test call for O=P(O)(O)CCCl
Result: FALSE

Task: Record request — test call for CC(C)C1(C)N=C(c2ncccc2C(=O)O)NC1=O (configuration not stated)
Result: FALSE

Task: Record request — test call for CCOP(=O)(OCC)Oc1nc(Cl)c(Cl)cc1Cl
Result: FALSE

---

- Experimental target: Bile acid receptor (Homo sapiens) (UniProt Q96RI1)
- Sequence (Q96RI1 whole entry, looked up): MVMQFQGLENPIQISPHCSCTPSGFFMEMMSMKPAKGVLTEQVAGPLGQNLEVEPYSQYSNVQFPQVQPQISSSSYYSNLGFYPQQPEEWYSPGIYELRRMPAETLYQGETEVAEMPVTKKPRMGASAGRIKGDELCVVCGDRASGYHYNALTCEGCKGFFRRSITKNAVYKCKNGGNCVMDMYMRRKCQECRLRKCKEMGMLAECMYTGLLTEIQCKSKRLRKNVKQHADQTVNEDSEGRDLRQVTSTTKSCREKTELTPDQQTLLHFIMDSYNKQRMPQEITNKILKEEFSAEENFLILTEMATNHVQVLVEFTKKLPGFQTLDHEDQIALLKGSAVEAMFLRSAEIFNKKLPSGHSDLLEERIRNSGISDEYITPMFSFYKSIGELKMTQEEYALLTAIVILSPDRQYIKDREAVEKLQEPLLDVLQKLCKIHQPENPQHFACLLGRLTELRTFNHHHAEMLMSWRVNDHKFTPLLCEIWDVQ
- Assay info: OT_FXR_FXRSRC1_1440: Odyssey Thera (OT) 24-hour HEK293T Protein-Complementation Assay for Farnesoid X receptor/SRC-1 Co-activator (AID 2283384)
- Description: OT_FXR_FXRSRC1_1440 is a cell-based assay that uses HEK293T, a human kidney cell line, with measurements taken at 24 hours after chemical dosing in a 384-well plate.OT_FXR_FXRSRC1_1440 is one of one assay component(s) measured or calculated from the OT_FXR_FXRSRC1_1440 assay. […] This assay endpoint, OT_FXR_FXRSRC1_1440, was analyzed in the positive analysis fitting direction relative to DMSO as the negative control and baseline of activity. […]
Results filed as inconclusive are left out. Active and inactive are the calls of the source. The calls were made as follows: active = hit-call score of the fitted dose curve at least 0.9, where 1 is the maximum; inconclusive = response in the unintended direction; inactive = score below 0.9.
The categories you may choose from are active, inactive

Compound: CCNC(=O)NC(=O)C(C#N)=NOC
Experimental target: Bile acid receptor (Homo sapiens) (UniProt Q96RI1)
Class label: active

Task: Record request — test call for CS(=O)(=O)c1ccc(C(=O)C2C(=O)CCCC2=O)c([N+](=O)[O-])c1
Result: inactive

Task: Record request — test call for CCC(C)n1c(=O)[nH]c(C)c(Br)c1=O (stereo not drawn)
Result: inactive

Task: Record request — test call for CN=C=S
Result: inactive

Task: Record request — test call for CCOc1cc(C(C)(C)C)ccc1C1COC(c2c(F)cccc2F)=N1 (stereo not drawn)
Result: active

Task: Record request — test call for Cc1nc(N(C)C)nc(OC(=O)N(C)C)c1C
Result: inactive

Task: Record request — test call for CO/N=C(/C1=NOCCO1)c1ccccc1Oc1ncnc(Oc2ccccc2Cl)c1F
Result: active

Task: Record request — test call for COCC(=O)N(c1c(C)cccc1C)C(C)C(=O)OC (stereo not drawn)
Result: inactive

Task: Record request — test call for COC(=O)NC(=S)Nc1ccccc1NC(=S)NC(=O)OC
Result: inactive

Task: Record request — test call for CNC(=O)Oc1cccc2ccccc12
Result: inactive

Task: Record request — test call for CCCCOCN(C(=O)CCl)c1c(CC)cccc1CC
Result: active

Task: Record request — test call for CCCCC(O)(Cn1cncn1)c1ccc(Cl)cc1Cl (stereo not drawn)
Result: active

Task: Record request — test call for COc1cc(OC)nc(NC(=O)NS(=O)(=O)c2ncccc2OCC(F)(F)F)n1
Result: inactive

---

- Assay info: CCTE_Shafer_MEA_acute_burst_percentage_mean: CCTE's Neural Acute Assay for Percentage of Spikes in a Burst, Shafer Lab (AID 2284017)
The source made the active and inactive calls. Rule for the calls: active = hit-call score of the fitted dose curve at least 0.9, where 1 is the maximum; inactive = score below 0.9.
The categories you may choose from are YES = active, NO = inactive

Reference set, count: 8
Molecule: CC(C)N1C(=O)N(c2ccccc2)CSC1=NC(C)(C)C
Class label: YES
//
Molecule: CCOC(=O)C(C)OC(=O)c1cc(Oc2ccc(C(F)(F)F)cc2Cl)ccc1[N+](=O)[O-] (stereo not drawn)
Class label: NO
//
Molecule: CC1(C)C(C=C(Cl)Cl)C1C(=O)OC(C#N)c1cccc(Oc2ccccc2)c1 (stereo not drawn)
Class label: YES
//
Molecule: CCOc1cc(C(C)(C)C)ccc1C1COC(c2c(F)cccc2F)=N1 (stereo not drawn)
Class label: YES
//
Molecule: CCCC(=NOCC)C1=C(O)CC(CC(C)SCC)CC1=O (stereo not drawn)
Class label: YES
//
Molecule: COCC(=O)N(c1c(C)cccc1C)C(C)C(=O)OC (stereo not drawn)
Class label: NO
//
Molecule: Cc1ccc(N=CN(C)C=Nc2ccc(C)cc2C)c(C)c1
Class label: NO
//
Molecule: COC(=O)N(C(=O)N1CO[C@@]2(C(=O)OC)Cc3cc(Cl)ccc3C2=N1)c1ccc(OC(F)(F)F)cc1
Class label: YES

Could you now consider this next molecule?
Task: Record request — test call for CC(C)N1C(=O)c2ccccc2NS1(=O)=O
Result: NO

---

- Assay info: APR_HepG2_StressKinase_24hr: Apredica 24-hour HepG2 Assay for Stress Kinase (AID 2282922)
- Condition label: HepG2 stress kinase (phospho-c-Jun) imaging, actives raise or lower the signal
Activity calls are given as the source filed them. Rule for the calls: active = hit-call score of the fitted dose curve at least 0.9, where 1 is the maximum; inactive = score below 0.9.
The categories you may choose from are active, inactive

Reference set, count: 3
Molecule: CN=C=S
Class label: inactive
//
Molecule: CC1(C)CON(Cc2ccccc2Cl)C1=O
Class label: inactive
//
Molecule: CCOc1nc(C(Cl)(Cl)Cl)ns1
Class label: inactive

Task: Record request — test call for CCC(C)n1c(=O)[nH]c(C)c(Br)c1=O (stereo unspecified)
Result: inactive

Task: Record request — test call for COC(=O)NS(=O)(=O)c1ccc(N)cc1
Result: inactive

Task: Record request — test call for CCCN(CC)CC1COC2(CCC(C(C)(C)C)CC2)O1 (stereo unspecified)
Result: inactive

Task: Record request — test call for C=C(C)CN(CC)c1c([N+](=O)[O-])cc(C(F)(F)F)cc1[N+](=O)[O-]
Result: inactive

Task: Record request — test call for C=CCOC(=O)C(C)(C)OC(=O)c1cc(-n2c(=O)cc(C(F)(F)F)n(C)c2=O)ccc1Cl
Result: inactive

Task: Record request — test call for O=P(O)(O)CCCl
Result: inactive

Task: Record request — test call for Cc1c(COC(=O)[C@@H]2[C@H](/C=C(\Cl)C(F)(F)F)C2(C)C)cccc1-c1ccccc1
Result: inactive

Task: Record request — test call for Cc1cnc(C2=NC(C)(C(C)C)C(=O)N2)c(C(=O)O)c1 (stereo unspecified)
Result: inactive

Task: Record request — test call for COP(=O)(OC)O/C(C)=C/C(=O)N(C)C
Result: inactive

Task: Record request — test call for COP(=S)(OC)SCn1nnc2ccccc2c1=O
Result: inactive

Task: Record request — test call for CC(C)=CC1C(C(=O)OCc2coc(Cc3ccccc3)c2)C1(C)C (stereo unspecified)
Result: inactive

Task: Record request — test call for CC(C)NC(=O)N1CC(=O)N(c2cc(Cl)cc(Cl)c2)C1=O
Result: inactive

Task: Record request — test call for N#Cc1c[nH]cc1-c1cccc2c1OC(F)(F)O2
Result: inactive

Task: Record request — test call for Nc1c(Cl)c(F)nc(OCC(=O)O)c1Cl
Result: inactive

Task: Record request — test call for N#Cc1c(Cl)cccc1Cl
Result: inactive

Task: Record request — test call for CCCCC(C#N)(Cn1cncn1)c1ccc(Cl)cc1 (stereo unspecified)
Result: inactive

Task: Record request — test call for CS(=O)(=O)c1ccc(C(=O)C2C(=O)CCCC2=O)c([N+](=O)[O-])c1
Result: inactive

Task: Record request — test call for CSC(=O)c1c(C(F)F)nc(C(F)(F)F)c(C(=O)SC)c1CC(C)C
Result: inactive

Task: Record request — test call for COP(=S)(OC)Oc1ccc([N+](=O)[O-])c(C)c1
Result: inactive

Task: Record request — test call for COCC(=O)N(c1c(C)cccc1C)C(C)C(=O)OC (stereo unspecified)
Result: inactive

Task: Record request — test call for CC1(C)CCC(=Cc2ccc(Cl)cc2)C1(O)Cn1cncn1 (stereo unspecified)
Result: inactive

Task: Record request — test call for O=C1C2CC=CCC2C(=O)N1SC(Cl)(Cl)Cl (stereo unspecified)
Result: active

Task: Record request — test call for N#CN=C1SCCN1Cc1ccc(Cl)nc1
Result: inactive

---

- Read-out: C-C motif chemokine 2 (Homo sapiens) (UniProt P13500)
- Assay info: BSK_KF3CT_MCP1: BioMAP Diversity Plus: KF3CT Assay for Monocyte Chemoattractant Protein 1 (MCP1/CCL2) Biomarker Activity (AID 2283073)
- Condition label: primary human keratinocytes with fibroblasts; actives raise or lower the signal
Calls of active or inactive are those of the source. The calls were made as follows: active = hit-call score of the fitted dose curve at least 0.9, where 1 is the maximum; inactive = score below 0.9.
The categories you may choose from are active, inactive

Compound: COC(=O)N(C(=O)N1CO[C@@]2(C(=O)OC)Cc3cc(Cl)ccc3C2=N1)c1ccc(OC(F)(F)F)cc1
Class label: inactive

Task: Record request — test call for N#CN=C1SCCN1Cc1ccc(Cl)nc1
Result: inactive

Task: Record request — test call for CC(C)C1(C)N=C(c2ncccc2C(=O)O)NC1=O (stereo not given)
Result: inactive

Task: Record request — test call for COc1cc(Cl)c(OC)cc1Cl
Result: inactive
